Source: ChEMBL document CHEMBL5331098

species: Bos taurus; assay: Inhibition of bovine liver beta-glucuronidase assessed as reduction of p-nitrophenol release using p-nitrophenyl-glycoside as substrate at 1000 uM by spectrophotometric analysis relative to control
Measured endpoint: inhibition (%)
Write it as a number; the unit % goes unstated.

Structure string	Reading
OC[C@@H]1N[C@@H]([C@H](O)CCCCCCc2ccc(Cl)cc2)[C@H](O)[C@H]1O	0
CC(C)(C)c1ccc(CCCCCC[C@H](O)[C@H]2N[C@H](CO)[C@@H](O)[C@@H]2O)cc1	0
OC[C@H]1N[C@H]([C@H](O)CCCCCCc2ccc(Cl)cc2)[C@@H](O)[C@@H]1O	0
OC[C@@H]1N[C@@H]([C@@H](O)CCCCCCc2ccc(Cl)cc2)[C@H](O)[C@H]1O	0
CC(C)(C)c1ccc(CCCCCC[C@H](O)[C@@H]2N[C@@H](CO)[C@H](O)[C@H]2O)cc1	0
Cc1ccc(CCCCCC[C@H](O)[C@@H]2N[C@@H](CO)[C@H](O)[C@H]2O)cc1	0
OC[C@H]1N[C@H]([C@@H](O)CCCCCCc2ccc(F)cc2)[C@@H](O)[C@@H]1O	0.3

Summary for this compound, Cl.OC[C@H]1N[C@H](CCCCCCCc2ccc(F)cc2)[C@@H](O)[C@@H]1O : inhibition is 42.5
